- protocol-description: Plasmodium falciparum growth inhibition, primary screen, strain 3D7, DAPI fluorescence, 100 nL (AID 1184);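 note: parasites grown inside human red blood cells in medium with human serum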
- measurement-conditions: P. falciparum 3D7 growth, 3 d, higher = more signal

{"molecule": "O=C(NCc1ccccc1)[C@@]1(Cc2ccccc2)N=C(c2ccc(OCCCO)cc2)O[C@H]1c1ccccc1", "z-score": -2.39}
{"molecule": "CCOC(=O)C[C@H]1[C@H](OC(=O)Cc2ccc3c(c2)OCO3)[C@@H](NC(=O)c2ccc3ccccc3c2)c2cc(OCCCO)ccc2N1C(=O)c1ccccc1", "z-score": 0.168}
{"molecule": "O=C1O[C@H](c2ccccc2)[C@H](c2ccccc2)N2[C@H]1[C@@H](C(=O)NC[C@H](O)c1ccccc1)[C@]1(C(=O)Nc3ccccc31)[C@H]2c1ccc(OCCO)cc1", "z-score": 0.249}
{"molecule": "C=CC[C@]1(C(=O)NCCCOC)N=C(c2ccc(OCCCO)cc2)O[C@H]1c1ccccc1N=[N+]=[N-]", "z-score": -1.99}
{"molecule": "O=C1C2C=CC(C(O)c3ccc(F)cc3)N(Nc3ccccc3F)C2C(=O)N1c1ccccc1 (centres undefined)", "z-score": 0.712}
{"molecule": "O=C1OCCC/C=C\\[C@H]2OC34C=CCN(Cc5ccccc5)C(=O)[C@H]3N(CCCCCCO)C(=O)[C@@H]4C12 (some centres undefined)", "z-score": -0.364}
{"molecule": "CCCCCC1=C2CNC(CCC)(C(=O)OC)C=C2C(C)C1=O (centres undefined)", "z-score": -0.175}
{"molecule": "COC(=O)c1c(CC[C@@H](CO)NC(=O)N[C@@H](C)Cn2cc(C3(O)CCCCC3)nn2)oc(C(C)=O)c1C(=O)OC", "z-score": -2.45}
{"molecule": "COc1ccc(C(O)C2C=CC3C(=O)NC(=O)C3N2Nc2ccccn2)cc1 (centres undefined)", "z-score": 0.557}
{"molecule": "COc1ccc([Si](C)(C)[C@H]2[C@H](CCn3cc([C@H](O)c4ccccc4)nn3)O[C@@]3(C(=O)N(Cc4cccc(N5CCOC5=O)c4)c4ccccc43)[C@@H]2C)cc1", "z-score": -1.54}
{"molecule": "C=C(CCCC)C(=O)CC[C@H](OC(=O)c1cccnc1)c1ccccc1OCCO", "z-score": -3.02}
{"molecule": "O=C1c2ccccc2[C@@]2(Cc3ccccc3N(CCN3CCOCC3)C2=O)[C@H](c2ccc(CO)cc2)N1Cc1ccccc1", "z-score": -0.119}
{"molecule": "COc1ccc(CCNC(=O)[C@@]2(Sc3ccc(C)cc3)CC(=O)N(C3CCCCC3)[C@@H]2c2ccc(CO)cc2I)cc1", "z-score": -2.12}
{"molecule": "CCCCC(O)C1C=CC2C(=O)N(c3ccccc3)C(=O)C2N1Nc1ccccc1F (centres undefined)", "z-score": 1.01}
{"molecule": "C=CC[C@@]1(C(=O)NCc2ccccc2)N=C(c2ccc(OCCCO)cc2)O[C@@H]1c1ccccc1N=[N+]=[N-]", "z-score": -1.92}
{"molecule": "[N-]=[N+]=NCc1ccccc1[C@@H]1OC(c2ccc(OCCCO)cc2)=N[C@]1(CCS(=O)(=O)c1ccccc1)C(=O)NCCN1CCOCC1", "z-score": -2.19}
{"molecule": "C=CCOC(=O)[C@H]1[C@@H]2C(=O)O[C@@H](c3ccccc3)[C@@H](c3ccccc3)N2[C@@H](c2ccc(OCCOC(=O)[C@H]3C[C@H]4C(=O)N5CCC[C@H]5C(=O)N4[C@H]3c3ccc(O)cc3)cc2)[C@]12C(=O)Nc1ccccc12", "z-score": -1.62}
{"molecule": "CCCCC=C[C@@H](NC(=O)Oc1cccc(C(F)(F)F)c1)c1ccccc1", "z-score": -1.01}
{"molecule": "CCCCN1CC=CC23O[C@@H]4C=CCOC(=O)[C@@H]4[C@H]2C(=O)N(CCCCCO)[C@@H]3C1=O (some centres undefined)", "z-score": -0.198}
{"molecule": "C=C[C@H](COC(C)=O)N(C(=O)OC(C)(C)C)S(=O)(=O)c1ccc(Br)cc1", "z-score": 1.18}
{"molecule": "O=C(NCc1ccccc1)[C@@H]1c2ccccc2C(=O)N(CC23CC4CC(CC(C4)C2)C3)[C@H]1c1ccc(CO)cc1", "z-score": -1.76}
{"molecule": "O=C1NC(=O)C2C1C=CC(C(O)c1ccccc1)N2Nc1ccc(Cl)cc1Cl (centres undefined)", "z-score": 0.416}
{"molecule": "C=CCC(OC(C)=O)[C@@H]1[C@@H](N(Cc2cccc3ccccc23)C(=O)c2ccc(-c3ccccc3)cc2)c2cc(OCCCO)ccc2N1C(=O)Cc1ccc(OC)cc1 (some centres undefined)", "z-score": -1.17}
{"molecule": "COCCOC(=O)N1C(=O)[C@@]2(c3cc(C#Cc4ccc(OC)cc4)ccc31)[C@H](c1ccccc1OCCO)N1[C@H](c3ccccc3)[C@H](c3ccccc3)OC(=O)[C@H]1[C@@H]2C(=O)N1CCN(c2ncccn2)CC1", "z-score": -1.86}
{"molecule": "COCCOC(=O)N1C(=O)[C@@]2(c3ccccc31)[C@H](c1ccccc1OCCO)N1[C@H](c3ccccc3)[C@H](c3ccccc3)OC(=O)[C@H]1[C@@H]2C(=O)Nc1nc2ccccc2s1", "z-score": -0.697}
{"molecule": "O=C(NCC(F)(F)F)[C@@H]1c2ccccc2C(=O)N(C2CCCCC2)[C@H]1c1ccc(CO)cc1", "z-score": -0.676}
{"molecule": "C[C@@H]1ON(c2cccc(C(=O)OC(C)(C)C)c2)[C@H](c2ccc(Br)cc2)[C@H]1C(=O)N1C(=O)OC[C@H]1Cc1ccccc1", "z-score": -0.829}
{"molecule": "CN1C(=O)C2C=CC(C(O)C3CC=CCC3)N(NC(=O)OC(C)(C)C)C2C1=O (centres undefined)", "z-score": 0.849}
{"molecule": "C[N+](C)(C)CCCC[C@@H]1NC(=O)[C@@H]2C[C@H](C(=O)NCCCCCN)[C@H](c3cccc(OCCO)c3)N2C1=O", "z-score": 0.137}

* * *

Entries annotated with measured z-score
- protocol-description: PSAC antagonists in infected red cells, primary screen, cell-based, P. falciparum Indochina, OD700, 1 h (AID 1154)
- measurement-conditions: P. falciparum Indochina infected RBC osmotic lysis, higher = more signal, called active from +8 up or from −8 down
property-label: z-score

{"compound": "CCCC[C@@H]1C[C@H]1[C@@H](NC(=O)c1ccco1)c1ccc(Cl)cc1", "property-label": "z-score", "experimental-value": 4.34}
{"compound": "CC(C)(C)OC(=O)CC[C@@]1(C(=O)NCC(O)CO)N=C(c2ccc(OCCCO)cc2)O[C@@H]1c1ccccc1N=[N+]=[N-] (stereo not given in full)", "property-label": "z-score", "experimental-value": 31.9}
{"compound": "CN1C(=O)C2C=CC(C(O)C3=C[C@H]4C[C@@H](C3)C4(C)C)N(Nc3ccccc3)C2C1=O (stereo not given in full)", "property-label": "z-score", "experimental-value": 0.451}
{"compound": "CC(C)(C)OC(=O)CC[C@]1(C(=O)NCC(O)CO)COC(c2ccc(OCCCO)cc2)=N1 (stereo not given in full)", "property-label": "z-score", "experimental-value": 5.77}
{"compound": "CCCCCC1=C2CNC(CCC)(C(=O)OC)C=C2C(C)C1=O (stereo not given)", "property-label": "z-score", "experimental-value": 2.2}

* * *

z-score reference
- protocol-description: CREB reporter modulators under forskolin, primary screen, cell-based, PC12, CRE-LacZ reporter, forskolin-stimulated (AID 1146);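 note: PC12 cells with 6xCRE LacZ reporter stimulated by forskolin 10 µM; beta-galactosidase reporter signal reflecting CREB driven transcription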
- measurement-conditions: luminescence, 4.5 h, higher = more signal, called active from +8 up or from −8 down

{"compound": "O=C(NCc1ccccc1)[C@@H]1c2ccccc2C(=O)N(CC23CC4CC(CC(C4)C2)C3)[C@H]1c1ccc(CO)cc1", "z-score": 0.707}
{"compound": "C=CCN1C(=O)[C@@]2(O[C@@H](CCO)[C@H]([Si](C)(C)c3ccc(OC)cc3)[C@H]2C)c2cc(NC(=O)c3ccc(OC)cc3)ccc21", "z-score": -1.6}
{"compound": "O=C1c2ccccc2[C@@]2(Cc3ccccc3N(CC(F)(F)F)C2=O)[C@H](c2ccc(CO)cc2)N1Cc1ccccc1Cl", "z-score": -1.11}
{"compound": "CC(CO)N1C(=O)[C@@H]2C3C(=O)OCCC/C=C\\[C@H]3OC23C=CCN(c2ccc4ccccc4c2)C(=O)[C@@H]13 (some centres not stated)", "z-score": 0.156}
{"compound": "COc1ccc(C(=O)O[C@H]2CC[C@]3(C)C4=C(CCC3C2(C)C)[C@]2(C)CC[C@H]([C@H](C)CCCC(C)C)[C@@]2(C)CC4)cc1 (some centres not stated)", "z-score": -0.634}
{"compound": "COCCOC(=O)N1C(=O)[C@@]2(c3cc(C#Cc4ccc(OC)cc4)ccc31)[C@H](C(N)=O)[C@H]1C(=O)O[C@H](c3ccccc3)[C@H](c3ccccc3)N1[C@@H]2c1ccccc1OCCO", "z-score": -0.134}
{"compound": "CCOC1=C2C(CN(S(=O)(=O)c3ccc(C)cc3)C2c2ccc(C)cc2)C2C(=O)N(c3ccccc3)C(=O)C2C1 (configuration not stated)", "z-score": 0.804}
{"compound": "COc1ccc(C(=O)Nc2ccc(CN3C(=O)[C@@]4(O[C@@H](CC(=O)N5CCC[C@H]5CO)[C@H]([Si](C)(C)c5ccc(OC)cc5)[C@H]4C)c4ccccc43)cc2)cc1", "z-score": -0.0184}
{"compound": "CCOC(=O)[C@H]1C/C=C/C[C@H](C(=O)OCC)C(=O)O[C@H]2[C@@H](OC)O[C@H](CO)[C@@H](OC(=O)Nc3cccc(F)c3)[C@@H]2OC1=O", "z-score": -0.848}
{"compound": "C=CCOC(=O)[C@@H]1[C@H]2C(=O)O[C@H](c3ccccc3)[C@H](c3ccccc3)N2[C@H](c2ccc(OCCOC(=O)[C@@H]3C[C@@H]4C(=O)N[C@@H](Cc5ccccc5)C(=O)N4[C@@H]3c3ccc(O)cc3)cc2)[C@@]12C(=O)Nc1ccc(I)cc12", "z-score": -0.526}
{"compound": "CCN(CC)c1ccc(N2CC=CC34O[C@@H]5/C=C\\CCCOC(=O)C5[C@H]3C(=O)N(CCO)[C@@H]4C2=O)cc1 (some centres not stated)", "z-score": -0.462}
{"compound": "COCCOC(=O)N1C(=O)[C@@]2(c3cc(C#CC4=CCCCC4)ccc31)[C@H](C(=O)N1CCc3cc(OC)c(OC)cc3C1)[C@H]1C(=O)O[C@H](c3ccccc3)[C@H](c3ccccc3)N1[C@@H]2c1ccc(OCCO)cc1", "z-score": -0.381}
